- System: MOLT-4
- ASSAY_NOTES: NCI tumour cell line growth inhibition, 48 h
Active and inactive are the calls of the source. Rule as the data show it: active = GI50 up to about 1.1 µM and inactive = higher.
Please respond with reported GI50 for every item in the list.

Give one value of GI50 per listed compound.
1. O=c1oc2ccccc2cc1-c1ccc([N+](=O)[O-])cc1
2. CCOC(=O)C1=CC(C)(C(=O)OCC)Nc2c(nc(SC)n(C)c2=O)N1 (configuration not stated)
3. NC1=NC2=C(CCCC2)C(c2cccs2)S1 (configuration not stated)
4. COc1ccc2c(c1)OCc1c-2oc2ccccc2c1=O
5. CC1=C(C(=O)NCc2ccccc2)C(c2ccc(C3C(C(=O)NCc4ccccc4)=C(C)NC(C)=C3C(=O)NCc3ccccc3)cc2)C(C(=O)NCc2ccccc2)=C(C)N1

Ans:
> 100 µM (inactive)
> 10 µM (inactive)
36.8 µM (inactive)
> 100 µM (inactive)
5.75 µM (inactive)

Give one value of GI50 per listed compound.
1. COC(=O)C(C#N)=C1c2ccccc2Oc2ccccc21
2. COc1ccc(/C=C2\C(=O)N(NC(C)=O)c3ccccc32)cc1

Ans:
1: 35.4 µM (inactive); 2: 40.9 µM (inactive)

* * *

- System: HCC 2998
- ASSAY_NOTES: NCI tumour cell line growth inhibition, 48 h
The source made the active and inactive calls. Cut-off read from the data, not from the text of the source: active = GI50 up to about 1.1 µM and inactive = higher.
Please respond with reported GI50 for every item in the list.

[[record]]
molecule = "CSc1ccc(/C=C2\\N=C(c3ccccc3)N(/N=C3\\C(=O)Nc4ccccc43)C2=O)cc1"
result = "> 100 µM (inactive)"

[[record]]
molecule = "CC(C)c1cccc(=O)c(O)c1"
result = "9.23 µM (inactive)"

[[record]]
molecule = "CC(=O)c1ccccc1NS(=O)(=O)c1ccc2nc(C)n(NS(=O)(=O)c3ccccc3C(C)=O)c(=O)c2c1"
result = "> 100 µM (inactive)"


Give one value of GI50 per listed molecule.
1. CC(C)(C)OC(=O)NCC(=O)NC1CC=CCC1NC(=O)CNC(=O)OC(C)(C)C (stereo not given)
2. NS(=O)(=O)c1ccc(NC(=O)Nc2cccc3ccccc23)cc1
3. CCOC(=O)/C(C(=O)c1ccc[nH]1)=C1/CCCN1C
4. CNC(=S)N/N=C/c1ccc([N+](=O)[O-])s1
5. NCCCNCCSP(=O)(O)O
6. COC1C(O)C(O[C@H]2CC[C@@]3(C)C(CC[C@@H]4[C@@H]3CC[C@]3(C)[C@@H](C(C)OC5OC(CO)C(O)C(O)C5O)CC[C@]43O)C2)OC(C)C1OC1OC(CO)C(O)C(O)C1O (stereo not given in full)
7. O=C1c2ccccc2C(=O)c2c1cc(S(=O)(=O)O)c(O)c2O

Ans:
> 100 µM (inactive)
27.6 µM (inactive)
> 100 µM (inactive)
8.15 µM (inactive)
> 733 µM (inactive)
> 100 µM (inactive)
> 100 µM (inactive)

* * *

- Test system: HL-60
- ASSAY_NOTES: NCI tumour cell line growth inhibition, 48 h
The source made the active and inactive calls. No stated cut-off is given here; in the data, active = GI50 up to about 1.1 µM and inactive = higher.
Pick from active, inactive when you respond.

Examples with answers:
[[record]]
molecule = "CCC(C#N)NC(=O)NC(C#N)CC (configuration not stated)"
tested_system = "HL-60"
category = "inactive"

[[record]]
molecule = "COC(=O)c1cc(-c2ccc(OC)c(OC)c2)oc1-c1ccc(OC)c(OC)c1"
tested_system = "HL-60"
category = "inactive"

[[record]]
molecule = "CC(C)Cc1cc(CCC(=O)Nc2ccccc2[N+](=O)[O-])nc(NC#N)n1"
tested_system = "HL-60"
category = "inactive"


Q: # outcome recorded in this test, key = COc1cc(NS(C)(=O)=O)ccc1NCc1c[nH]c2ccc3nc(C)ccc3c12
Ans: inactive

Q: # outcome recorded in this test, key = CC(=O)OC(CCC1(C)OC1COc1ccc(CCNC(=O)c2ccccc2)cc1)C(C)(C)OC(C)=O (configuration not stated)
Ans: inactive

* * *

- Test system: SNB-75
- ASSAY_NOTES: NCI tumour cell line growth inhibition, 48 h
Calls of active or inactive are those of the source. Cut-off read from the data, not from the text of the source: active = GI50 up to about 1.1 µM and inactive = higher.
Pick from active, inactive when you respond.

Examples with answers:
[[record]]
compound = "CC(=O)c1ccc2c(c1)CC1(C2)Cc2cc3c(cc2C1)C(=O)CC3 (stereo not given)"
tested_system = "SNB-75"
category = "inactive"

[[record]]
compound = "Cn1c(/C=C/CO)c(CO)c2c1C(=O)C=C(N1CC1)C2=O"
tested_system = "SNB-75"
category = "active"

[[record]]
compound = "CN(C)c1ccc(C(C#N)NNC(=O)Cc2ccccc2)cc1 (stereo not given)"
tested_system = "SNB-75"
category = "inactive"

[[record]]
compound = "S=C(Nc1ccccc1)N(Cc1ccccc1)c1ccccc1"
tested_system = "SNB-75"
category = "inactive"


Now for a further compound.
Q: # outcome recorded in this test, key = CN(CCCCN)c1ccc2c(=O)[nH][nH]c(=O)c2c1
Ans: inactive

* * *

- Test system: SNB-19
- ASSAY_NOTES: NCI tumour cell line growth inhibition, 48 h
Activity calls are given as the source filed them. Rule as the data show it: active = GI50 up to about 1.1 µM and inactive = higher.
PARAMETER: GI50

Example cases with answers are listed next.
[[record]]
compound = "COC(=O)C(C(=O)OC)C1CCCC(=O)C1 (configuration not stated)"
parameter = "GI50"
result = "> 100 µM (inactive)"

[[record]]
compound = "CC(C)(C)OC(=O)NC(Cc1ccccc1)C(=S)N1CCCC1 (configuration not stated)"
parameter = "GI50"
result = "> 100 µM (inactive)"

[[record]]
compound = "CC1=C(c2cc(C(=O)Nc3ccc(Cl)cc3)nc(S)n2)Sc2ccccc2N1"
parameter = "GI50"
result = "> 100 µM (inactive)"

[[record]]
compound = "CCOC(=O)C1=CC(C)(C(=O)OCC)Nc2c(nc(SC)n(C)c2=O)N1 (configuration not stated)"
parameter = "GI50"
result = "> 10 µM (inactive)"

[[record]]
compound = "Nc1ncnc2c1ncn2C1OC(CO)C(O)C1N (configuration not stated)"
parameter = "GI50"
result = "> 100 µM (inactive)"

[[record]]
compound = "O=C(NCCCCNCCCNC(=O)c1ccccc1)c1ccccc1"
parameter = "GI50"
result = "> 100 µM (inactive)"

[[record]]
compound = "COc1cccc2c3cccc(OC)c3c3[nH]cnc3c12"
parameter = "GI50"
result = "5.01 µM (inactive)"

[[record]]
compound = "O=C1c2ccccc2C(=O)c2c(NC(=O)C(Cl)CCl)cccc21 (configuration not stated)"
parameter = "GI50"
result = "15.2 µM (inactive)"


Give one value of GI50 per listed compound.
1. O=c1c2ccccc2nc2n1CCc1c-2[nH]c2ccccc12
2. S=C(Nc1ccccc1)N(Cc1ccccc1)c1ccccc1
3. CC1(C)COC(c2ccc(C(=O)c3ccc(Cl)cc3)cc2)=N1
4. COc1ccc(-c2cc3ccccc3oc2=O)cc1OC

Ans:
15.8 µM (inactive)
80.2 µM (inactive)
> 100 µM (inactive)
90.6 µM (inactive)

* * *

Please respond with reported GI50 for every item in the list.
- System: MDA-MB-231
- ASSAY_NOTES: NCI tumour cell line growth inhibition, 48 h
Active and inactive are the calls of the source. Rule as the data show it: active = GI50 up to about 1.1 µM and inactive = higher.

Example cases with answers are listed next.
[[record]]
compound = "CCCNC(=S)N/N=C1\\C(=O)Nc2ccccc21"
tested_system = "MDA-MB-231"
result = "> 100 µM (inactive)"

[[record]]
compound = "Cn1c2ccccc2c(=NNc2ccc(S(N)(=O)=O)cc2)c2ccccc21"
tested_system = "MDA-MB-231"
result = "9.23 µM (inactive)"

[[record]]
compound = "O=C(c1cccs1)N1CCN(C(=O)c2cccs2)C1=S"
tested_system = "MDA-MB-231"
result = "6.38 µM (inactive)"

[[record]]
compound = "COc1ccc(-c2nc(SC)n(C3OC(COC(C)=O)C(OC(C)=O)C(OC(C)=O)C3OC(C)=O)c(=O)c2C#N)cc1 (stereo unspecified)"
tested_system = "MDA-MB-231"
result = "> 100 µM (inactive)"

[[record]]
compound = "CNc1ncc(-c2nnnn2-c2ccccc2)c(CN(C)C)n1"
tested_system = "MDA-MB-231"
result = "> 100 µM (inactive)"


Consider the record given below.
Q: Please provide the recorded GI50 for O=C(Cn1ccnc1[N+](=O)[O-])NCCO , tested on MDA-MB-231.
Ans: > 100 µM (inactive)

* * *

- Test system: A549
- ASSAY_NOTES: NCI tumour cell line growth inhibition, 48 h
Calls of active or inactive are those of the source. Rule as the data show it: active = GI50 up to about 1.1 µM and inactive = higher.
Pick from class 1 for active, class 0 for inactive when you respond.

Examples with answers:
[[record]]
molecule = "CC1=CCC2CC1NC(=O)CCOCCC(=O)NC2(C)C (stereo unspecified)"
category = "class 0"

[[record]]
molecule = "Cn1c(N)c(Cc2ccc(Cl)cc2)c(=O)[nH]c1=O"
category = "class 0"

[[record]]
molecule = "CCOC(=O)/C(=C\\NC[C@@H](C)O)c1nc2ccccc2[nH]1"
category = "class 0"

[[record]]
molecule = "Cc1cc([N+](=O)[O-])c(C)c2c1[nH]c1ccc(Cl)cc12"
category = "class 0"

[[record]]
molecule = "CN(C)CCCN1c2ccccc2Sc2cnccc21"
category = "class 0"


Now for a further molecule.
Q: # outcome recorded in this test, key = CCOC(=O)Oc1c(OC)cc(C(=O)NC2CCc3cc(OC)c(OC)c(OC)c3-c3ccc(SC)c(=O)cc32)cc1OC (stereo unspecified)
Ans: class 1
